From: the supplement of paper PMC10126150

Please go through the items and note down their switch fluorescence ratio.
system: ATP; test: switch fluorescence ratio, 500 uM ATP over buffer (Cy3 cluster intensity, sum of 5 cycles each) (fold (ratio)); higher = stronger signal-on switching upon ATP binding; sequences stand for … in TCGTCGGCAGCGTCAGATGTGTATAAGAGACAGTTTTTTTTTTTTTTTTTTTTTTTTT…TC; conditions: aptamer strand: ATP DNA aptamer (quencher-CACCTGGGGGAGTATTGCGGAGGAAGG + anchor), 100 nM annealed; ATP concentration: 500 uM;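 further: ATP exposure 15 min at 22 °C before imaging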
Give bare numbers.

These solved cases illustrate the format of a correct answer.
| Sequence text | switch fluorescence ratio |
| --- | --- |
| TTAAGCATTT | 1.02 |
| CTTTTATTTA | 0.992 |
| GTTTTTATTG | 0.992 |
| AGATTTGTGT | 0.959 |
| AGGTTTCGAG | 0.997 |

Kindly give each listed record's switch fluorescence ratio.
1. CAAATGGGCT
2. CCAATGGTGG
3. AATTGTAGGT
4. GGTCGGGGGA
5. TGGTTTGTGT
6. TCGTAGACGT
7. GCTTTTGTGG

# output
1. 0.975
2. 1.01
3. 0.973
4. 0.99
5. 0.981
6. 1.01
7. 0.986

# input Endpoint output: switch fluorescence ratio of CCATGTTGCG . Value?
# output 0.982

---

system: ATP; experiment: switch fluorescence ratio, 500 uM ATP over buffer (Cy3 cluster intensity, sum of 5 cycles each) (fold (ratio)); higher = stronger signal-on switching upon ATP binding; sequences stand for … in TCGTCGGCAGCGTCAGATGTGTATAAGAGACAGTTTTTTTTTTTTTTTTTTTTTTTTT…TC; conditions: aptamer strand: ATP DNA aptamer (quencher-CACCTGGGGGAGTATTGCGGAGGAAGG + anchor), 100 nM annealed; ATP concentration: 500 uM;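 further: ATP exposure 15 min at 22 °C before imaging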
We use 1 as the dividing line for switch fluorescence ratio: on or above the line is 1, below is -1.

Example entries begin here.
| Sequence text | Cat |
| --- | --- |
| AGGTACACCT | 1 |
| TATGGGTGGG | -1 |

# input Is the recorded value of switch fluorescence ratio equal to or greater than 1 for this sequence? AAGGAGGGGC
# output 1

---

Assign switch fluorescence ratio to each entry below.
system: ATP; assay: switch fluorescence ratio, 500 uM ATP over buffer (Cy3 cluster intensity, sum of 5 cycles each) (fold (ratio)); higher = stronger signal-on switching upon ATP binding; sequences stand for … in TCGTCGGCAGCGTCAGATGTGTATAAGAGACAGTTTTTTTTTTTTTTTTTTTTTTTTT…TC; conditions: aptamer strand: ATP DNA aptamer (quencher-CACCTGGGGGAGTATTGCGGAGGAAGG + anchor), 100 nM annealed; ATP concentration: 500 uM;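 further: ATP exposure 15 min at 22 °C before imaging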
Answers are plain numbers.

| Sequence text | Endpoint result |
| --- | --- |
| GATTAAAGGC | 1.01 |
| GAAAGGTAAG | 0.993 |
| TATTGTTTTG | 0.986 |
| AAAGGCCGGA | 1.03 |
| CACTGTGGGT | 0.974 |

Batch lookup, switch fluorescence ratio per entry.
1. TGAGTCAGTG
2. GCTGTGTGGG
3. AAGTGGGGG
4. AGGCTATGTA
5. GTATGAGGCG

# output
[1.01, 1.03, 0.992, 1, 0.981]

---

system: ATP; assay: switch fluorescence ratio, 500 uM ATP over buffer (Cy3 cluster intensity, sum of 5 cycles each) (fold (ratio)); higher = stronger signal-on switching upon ATP binding; sequences stand for … in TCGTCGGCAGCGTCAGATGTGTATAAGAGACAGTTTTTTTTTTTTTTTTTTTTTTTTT…TC; conditions: aptamer strand: ATP DNA aptamer (quencher-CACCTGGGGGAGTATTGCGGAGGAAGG + anchor), 100 nM annealed; ATP concentration: 500 uM;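 further: ATP exposure 15 min at 22 °C before imaging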
For each of the sequences below, state its switch fluorescence ratio.
Give bare numbers.

| Sequence text | switch fluorescence ratio |
| --- | --- |
| AGAGTCTATC | 0.972 |
| CAAGGGGGGT | 1 |
| TAAGGGCGTT | 0.994 |

Working through the 7 sequences below one at a time, give switch fluorescence ratio for each.
1. CGGAGGGGTG
2. GGGAGGCAGA
3. CAGTTCACCT
4. TGATCGGCGG
5. TTGGAGGTAG
6. AGATGGCATT
7. CGAATCCATT

# output
[1.02, 0.989, 1.08, 1.02, 1, 1, 0.987]

Provide switch fluorescence ratio values for the following items, in order.
1. GTTTTGTGTT
2. CTAGCATGAT
3. GGGTGGAAAG
4. CAAAAATTAT

# output
1. 0.992
2. 1.03
3. 0.984
4. 1.03

Below are some sequences; for each one, tell me its switch fluorescence ratio.
1. ATGAGCCGAG
2. AAAGGCCGTC
3. CATAGGGTTT
4. AAATTCGCTG
5. AGATATGTTG
6. TTTTTTTAA

# output
[0.998, 1.04, 1.04, 1.01, 0.996, 0.991]

---

tested on: ATP; experiment: switch fluorescence ratio, 500 uM ATP over buffer (Cy3 cluster intensity, sum of 5 cycles each) (fold (ratio)); higher = stronger signal-on switching upon ATP binding; sequences stand for … in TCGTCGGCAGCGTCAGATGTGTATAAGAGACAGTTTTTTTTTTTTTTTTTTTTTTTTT…TC; conditions: aptamer strand: ATP DNA aptamer (quencher-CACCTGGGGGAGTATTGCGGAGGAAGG + anchor), 100 nM annealed; ATP concentration: 500 uM;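 further: ATP exposure 15 min at 22 °C before imaging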
Label class 1 when switch fluorescence ratio >= 1; otherwise class 0.

The following sequences have reported results that may help.
| Sequence text | Assay system | Cat |
| --- | --- | --- |
| CCATTCCCAT | ATP | class 1 |
| CGCATTCGTG | ATP | class 1 |
| TCTGATGGTG | ATP | class 1 |
| CATGGAGGGG | ATP | class 0 |

# input Item AATGTGAGCT with switch fluorescence ratio of 1 or above?
# output class 1

# input Now give it for TTGGTAATGT too.
# output class 1

---

test system: ATP; assay: switch fluorescence ratio, 500 uM ATP over buffer (Cy3 cluster intensity, sum of 5 cycles each) (fold (ratio)); higher = stronger signal-on switching upon ATP binding; sequences stand for … in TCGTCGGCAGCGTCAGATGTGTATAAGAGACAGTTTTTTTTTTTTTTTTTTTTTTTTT…TC; details: aptamer strand: ATP DNA aptamer (quencher-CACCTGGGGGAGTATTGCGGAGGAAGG + anchor), 100 nM annealed; ATP concentration: 500 uM;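 further: ATP exposure 15 min at 22 °C before imaging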
Please provide measured switch fluorescence ratio for the entries that follow.
Answers are plain numbers.

// for each sequence below, give its switch fluorescence ratio
1. GGGCTGGGGA
2. GGTGTAACAG
3. GTGACGGGGT
4. ATAAGCCTGG
5. GGGGGAGTTC
6. TAGTTTGGAT

# output
1. 1.01
2. 0.991
3. 1.01
4. 1.01
5. 1.02
6. 1.01

Record switch fluorescence ratio for all entries; do not skip any.
1. AAATGAGTTA
2. AGAGGTAAGA
3. TGGCCCGGGG

# output
1. 0.99
2. 0.991
3. 0.988

Respectfully, I request switch fluorescence ratio for each entry included below.
1. CAGTTGGGAC
2. GCCTGTTTGT
3. CAGGGTGAGA
4. GGGGAAGGAA
5. TTAAGACGTA
6. TACGGCTTTT
7. TCGTAGGATG
8. TAGGAGTTGC

# output
1. 1
2. 0.983
3. 1.04
4. 0.998
5. 1.03
6. 1.01
7. 0.975
8. 0.971

Provide switch fluorescence ratio values for the following items, in order.
1. GACTGTGATC
2. TATGCCTGTG
3. AGGTTTATGC
4. GTTAGCTTGA
5. TTTTATCCCA
6. TTGTATAGGG
7. GGCCCTAAGT
8. AAGTTGCGGA

# output
1: 1.04; 2: 1.01; 3: 0.977; 4: 0.997; 5: 1; 6: 1; 7: 0.976; 8: 0.975

Kindly give each listed record's switch fluorescence ratio.
1. GTAGTCTTAG
2. GTGCCTTTGC
3. GTTAGTGTTG
4. TTTTATTCTT

# output
[0.994, 1.11, 0.978, 0.987]

Look at each sequence and report its switch fluorescence ratio.
1. TTGGTCCGTC
2. CATCGGTATA
3. TCTGAAAATG
4. GACATTCCCT
5. TTTATGGAGA
6. AGGAAGCGGG

# output
[1.01, 1.06, 0.998, 1.07, 0.998, 1.02]

Count: 3. Required value per item: switch fluorescence ratio.
1. ATTTTTATCC
2. TGGGACCCTT
3. TGCTGGGGGG

# output
1. 1.02
2. 1.06
3. 0.981

Could you report switch fluorescence ratio for every entry in the following list?
1. GAATCCGGGA
2. GAATCAGGGG
3. TCAGTTTTCC

# output
1. 1.05
2. 1.11
3. 1.02
